- Tested on: LOX IMVI melanoma
- Protocol Text: NCI-60 one-dose screen, 48 h (100 = growth as untreated, 0 = no growth, -100 = all killed)
- Experimental Conditions: 10 µM unless noted
Compounds without any hit were thinned out: in the full panel of roughly 83,000, 20% have a hit.
growth less than 50% is satisfied; growth greater than or equal to 50% is not satisfied.

{"Compound": "c1ccc(CNc2nc(Nc3ccccc3)nc3ccccc23)cc1", "Qualitative Label": "not satisfied"}
{"Compound": "COC(=O)[C@H]1CCCN1C(=O)[C@H]1CCCN1C(=O)[C@H](Cc1c[nH]c2ccccc12)NC(=S)Nc1cc(C(F)(F)F)cc(C(F)(F)F)c1", "Qualitative Label": "satisfied"}
{"Compound": "COC(=O)c1c2c(c(C)[n+]([O-])c1C)C(=O)C(NCc1ccc(F)c(F)c1)=CC2=O", "Qualitative Label": "satisfied"}
{"Compound": "Cc1nn(-c2nc3ccccc3[nH]2)c2c1C(c1ccc(OCC(N)=O)cc1)CC(=O)N2 (centres undefined)", "Qualitative Label": "not satisfied"}
{"Compound": "COC(=O)/C(=C\\c1c(C)[nH]c2ccccc12)S(=O)(=O)c1ccccc1", "Qualitative Label": "satisfied"}

Take the compound `COc1cc2nc(NC3CCCC3)nc(NC3CCN(C(C)C)CC3)c2cc1OC` and say whether its growth is less than 50%.
not satisfied

* * *

- Test system: NCI/ADR-RES ovarian
- Protocol Text: NCI-60 one-dose screen, 48 h (100 = growth as untreated, 0 = no growth, -100 = all killed)
- Experimental Conditions: 10 µM unless noted
About 83,000 compounds went through this panel and 20% of them were active in at least one assay; those are over-represented in the sample as a whole.
// values below are reported growth
Give the value, in units of %, as a plain number.

See these solved cases before continuing.
{"Compound": "CCOC(=O)c1c(Cl)c2c(n1Cc1ccccc1)-c1oncc1CCC2", "growth, %": 43.5}
{"Compound": "Cn1cc(-c2ccc3ncc(-c4ccc(CC(=O)Nc5cc(C(C)(C)C)no5)cc4)nc3c2)cn1", "growth, %": 43.7}
{"Compound": "CN1CCN(Cc2ccc(NC(=O)c3[nH]ncc3Nc3cc(OC4CCCC4)ncn3)cc2)CC1", "growth, %": 44}

`CCOC(=O)c1cc2c(n1Cc1cc(OC)c(OC)c(OC)c1)-c1oncc1CCC2` yielded growth of 3.55

`O=C1C(Cl)=C(NCc2ccco2)C(=O)c2ccccc21` yielded growth of 84.6

`CCOc1ccc2nc(C)cc(Nc3ccc(Br)cc3)c2c1` yielded growth of 95.4

`O=c1oc2ccc(Br)cc2c(=O)n1-c1ccc(I)cc1F` yielded growth of 9.96

O=C(c1nc2ccccc2[nH]1)C1C(c2cccc([N+](=O)[O-])c2)C2CC3CCCCC3N2[C@@]12C(=O)Nc1cc(Cl)ccc12 (stereo partly specified) yielded growth of 39.7

`Cc1nc2ccccc2c(/C=C/c2ccc(F)cc2)c1C(N)=O` yielded growth of 111

COc1ccc(C2c3ccc4ccccc4c3Oc3ncn(CCCn4ccnc4)c(=N)c32)cc1OC (stereo unspecified) yielded growth of 67.8

`COc1c2ccoc2c(/C=C/C=O)c2oc(-c3ccccc3)cc(=O)c12` yielded growth of 32.4

`Cn1nc(C(F)(F)F)c(-c2ccc(Cl)c(C(F)(F)F)c2)c1-c1ccc(OCc2ccc(Cl)cc2)cc1O` yielded growth of 8.38

`O=C(Nc1ccc(N2CCNCC2)cc1)c1[nH]ncc1Nc1cc(Oc2ccccc2)ncn1` yielded growth of 77.5

`O=C1NC(=S)NC(=O)C1=Cc1cn(Cc2cn(Cc3cccc4ccccc34)nn2)c2ccccc12` yielded growth of 96.5

`CCOc1ccc(Nc2ccnc3cc(Cl)ccc23)cc1` yielded growth of 3.34

COc1ccccc1CNC(=O)C1c2ccccc2C(=O)N(CC(C)C)C1c1cccs1 (stereo unspecified) yielded growth of 71.4

`COc1cc(C(=O)NN=C2c3ccccc3-c3ccccc32)cc(OC)c1OC` yielded growth of 23.3

* * *

- System: SF-268 CNS
- Protocol Text: NCI-60 one-dose screen, 48 h
- Experimental Conditions: 10 µM unless noted
The panel holds about 83,000 compounds, 20% with a hit somewhere; the sample as a whole holds those more often. The source made the active and inactive calls. How the source made its calls: active means growth percent below 10; inactive means the rest.
Tick one outcome: Yes (active), No (inactive)

Past entries and their recorded results:
{"Compound": "O=C(NC1C(O)OC(CO)C(O)C1O)NS(=O)(=O)c1ccc(Cl)cc1 (stereo unspecified)", "Qualitative Label": "No"}
{"Compound": "Nc1ccc(-n2c(=O)oc3ccc(Cl)cc3c2=O)c(Cl)c1", "Qualitative Label": "Yes"}
{"Compound": "O=C(Nc1ccc(I)cc1F)c1cc(Br)ccc1O", "Qualitative Label": "Yes"}

What is the recorded call for this compound in the test? `Nc1nc(-c2cnccn2)nn1-c1nc2ccccc2s1`
No

What is the recorded call for this compound in the test? `O=C1C(Cl)=C(NCc2ccco2)C(=O)c2ccccc21`
No

What is the recorded call for this compound in the test? `COc1ccc(S(=O)(=O)N(Cc2ccc3c(n2)C=CC(C)(C)O3)C2CCC2)cc1OC`
Yes

What is the recorded call for this compound in the test? `COc1cccc(-c2nn(C)c3sc(C(=O)NCCN4CCN(c5ccccc5F)CC4)cc23)c1`
No

What is the recorded call for this compound in the test? `CCN(CC)CCCNc1ccnc2cc3ccccc3cc12`
No

What is the recorded call for this compound in the test? `O=c1oc2ccc(Cl)cc2c(=O)n1-c1ccc(F)cc1F`
No

What is the recorded call for this compound in the test? `COc1ccc2sc3c(NCCCN)nc4ccccc4c3c(=O)c2c1`
No

What is the recorded call for this compound in the test? `CC(=O)c1ccc2oc(=O)n(Cc3ccc(C#N)cc3)c(=O)c2c1`
No

* * *

- System: OVCAR-5 ovarian
- Protocol Text: NCI-60 one-dose screen, 48 h (100 = growth as untreated, 0 = no growth, -100 = all killed)
- Experimental Conditions: 10 µM unless noted
This is part of a sample that, as a whole, favours compounds with a hit. Of some 83,000 tested, about 20% had one in any assay. The source made the active and inactive calls. Rule for the calls: active = growth percent below 10; inactive = the rest.
// values below are reported growth

See these solved cases before continuing.
{"Molecule": "O=S(=O)(c1ccccc1)n1cc2c(c1-c1ccccc1)CCc1sc(Nc3ccccc3)nc1-2", "growth": "94.4% (inactive)"}
{"Molecule": "CC(=O)c1ccc(Cc2ccc(C(C)=O)s2)s1", "growth": "100% (inactive)"}
{"Molecule": "COc1cc(C2C(C#N)=C(N)OC3=C2C(=O)c2ccccc2C3=O)cc(OC)c1OC (stereo not given)", "growth": "44% (inactive)"}

`COc1ccc(-c2nc(-c3ccccc3)c(-c3ccccc3)[nH]2)cc1OC1CCCCC1` yielded growth of 96.6% (inactive)

`COc1ccc2oc(=O)cc(Cn3cc(Cn4cnc5c4c(=O)n(C)c(=O)n5C)nn3)c2c1` yielded growth of 94% (inactive)

* * *

// values below are reported growth
- Tested on: NCI-H23 lung
- Protocol Text: NCI-60 one-dose screen, 48 h (100 = growth as untreated, 0 = no growth, -100 = all killed)
- Experimental Conditions: 10 µM unless noted
Compounds without any hit were thinned out: in the full panel of roughly 83,000, 20% have a hit.
Give the value, in units of %, as a plain number.

See these solved cases before continuing.
{"Molecule": "CCN(CC)CCNC(=O)C(Cl)=C1C(Cl)=C(Cl)C(Cl)=C1Cl", "Endpoint Value": 55.9}
{"Molecule": "Cc1cccc2c(=O)c3c(sc12)c(N1CCNCC1)nc1ccccc13", "Endpoint Value": 80.4}
{"Molecule": "O=C(Nc1ccc(C23CC4CC(CC(c5ccccc5)(C4)C2)C3)cc1)c1cccs1", "Endpoint Value": 71.4}
{"Molecule": "COc1ccc(C(=O)C2CC2c2ccc(Cl)cc2)cc1 (stereo not given)", "Endpoint Value": 95.1}
{"Molecule": "O=C(CN1C=NC2C(N3CCOCC3)=NC=NC21)c1cccc2ccccc12 (stereo not given)", "Endpoint Value": 103}

`Nc1ccc(-c2ccc(-c3ccccc3N)c3[nH]c4ccccc4c23)cc1` yielded growth of 28.4

`COc1cc(NC(=O)CCSc2nc3ccccc3c(=O)n2CCc2ccccn2)cc(OC)c1OC` yielded growth of 88.3

* * *

- Tested on: PC-3 prostate
- Protocol Text: NCI-60 one-dose screen, 48 h (100 = growth as untreated, 0 = no growth, -100 = all killed)
- Experimental Conditions: 10 µM unless noted
- Method: Growth inhibition of the PC-3 human tumor cell line is measured as a screen for anti-cancer activity. Cells are grown in 96 well plates and exposed to the test compound for 48 hours. Compounds are tested at a single concentration, which is 10^-5 M for most compounds. The reported endpoint is percent growth (GI% or GIPRCNT), where numbers from 0 - 100% represent growth inhibition, and numbers from -100% - 0 represent cell death. For example, a value of 40 represents 60% growth inhibition. […]
This is part of a sample that, as a whole, favours compounds with a hit. Of some 83,000 tested, about 20% had one in any assay.
Experimental Readout: growth (%)
Give the value, in units of %, as a plain number.

{"Compound": "O=c1oc2ccc(Cl)cc2c(=O)n1-c1ccc(Cl)cc1F", "growth / %": 2.03}
{"Compound": "COc1cc(C(=O)NN=C2c3ccccc3-c3ccccc32)cc(OC)c1OC", "growth / %": 31}

`C=C[C@@H]1CCC/C=C/[C@@H]2C[C@H](O)C[C@H]2[C@H](O)/C=C/C(=O)O1` yielded growth of 30.3

`COc1ccccc1N1C(=N)S/C(=C\c2ccc(OCc3ccccc3F)cc2)C1=O` yielded growth of 66.9

CN1C(=O)N(C)C2C1NN=c1s/c(=C\c3ccc(Cl)cc3Cl)c(=O)n12 (stereo unspecified) yielded growth of 20

`CCCCNc1nc(NC(C)(C)C)nc(NC(C)(C)C)n1` yielded growth of 58.6

`Cc1ccc(OCCCCCCNCCO)c(C)c1` yielded growth of 16
